- Tested on: EKVX
- Assay Summary: NCI 60-cell drug screen, Non-Small Cell Lung Cancer EKVX
- Assay type: cell-based, human
- Experimental Context: 1.00E−5 Molar
label 1 if Growth Percent, EKVX is below 50%. label 0 if not; exact matches included in label 0.

1) O=C1c2ccccc2C(=O)c2c1ccc1nc3n(c21)CCS3 [f3-1] ... label 1
2) CN(C)CCCSc1nc2ccc3c(c2[nH]1)C(=O)c1ccccc1C3=O [f1-15] ... label 0
3) CCCSc1nc2ccc3c(c2[nH]1)C(=O)c1ccccc1C3=O [f1-2] ... label 0
4) O=C1c2ccccc2C(=O)c2c1ccc1nc(SCCN3CCCC3)[nH]c21 [f1-11] ... label 0
5) CCSc1nc2ccc3c(c2[nH]1)C(=O)c1ccccc1C3=O [f1-1] ... label 1
